Test system: Nannizzia gypsea
test.protocol: Antifungal activity against Microsporum gypseum at 25 ug/disc incubated for 5 days by agar disk diffusion method
Assay type: functional
test.context: 120 h, read-out: DIZ
endpoint: zone of inhibition at 25 µg/disc (mm)
Express your answer in mm, writing the number without its unit.

[
  {
    "compound": "COC1=CC(=O)C2=C(O[C@]3(C2=O)C(OC)=CC(=O)C[C@H]3C)C1(F)Cl (mixture of isomers)",
    "unit.symbol": "mm",
    "zone of inhibition at 25 µg/disc": 0
  },
  {
    "compound": "COC1=CC(=O)[C@H](O)[C@@H](C)[C@]12Oc1c(Cl)c(OC)cc(OC)c1C2=O",
    "unit.symbol": "mm",
    "zone of inhibition at 25 µg/disc": 0
  },
  {
    "compound": "COC1=CC(=O)C[C@@H](C)[C@]12Oc1cc(O)cc(OC)c1C2=O",
    "unit.symbol": "mm",
    "zone of inhibition at 25 µg/disc": 0
  },
  {
    "compound": "COC1=CC(=O)C[C@@H](C)[C@]12Oc1c(F)c(OC)cc(OC)c1C2=O",
    "unit.symbol": "mm",
    "zone of inhibition at 25 µg/disc": 34
  },
  {
    "compound": "COC1=CC(=O)C[C@@H](C)[C@]12Oc1c(Cl)c(O)cc(OC)c1C2=O",
    "unit.symbol": "mm",
    "zone of inhibition at 25 µg/disc": 0
  },
  {
    "compound": "COC1=CC(=O)C[C@@H](C)[C@]12Oc1c(Cl)c(OC)cc(OC)c1C2=O",
    "unit.symbol": "mm",
    "zone of inhibition at 25 µg/disc": 35
  },
  {
    "compound": "COC1=CC(=O)C[C@@H](C)[C@]12Oc1c(Cl)c(OC)c(F)c(OC)c1C2=O",
    "unit.symbol": "mm",
    "zone of inhibition at 25 µg/disc": 23
  },
  {
    "compound": "COC1=CC(=O)C[C@@H](C)[C@]12Oc1cc(OC)cc(OC)c1C2=O",
    "unit.symbol": "mm",
    "zone of inhibition at 25 µg/disc": 0
  }
]

Would you kindly look at the next entry?
Input: Field request: zone of inhibition at 25 µg/disc | item: COC1=CC(=O)[C@H](O)[C@@H](C)[C@]12Oc1cc(OC)c(F)c(OC)c1C2=O
Output: 0

###

Tested on: MDA-MB-231
test.protocol: Cytotoxicity against human MDA-MB-231 cells assessed as reduction in cell viability at 50 uM by cell titer 96 aqueous one solution cell proliferation assay
Assay type: functional, cell-based
Calls of active or inactive are those of the source. The rule behind the calls is not given here.
endpoint: Activity

[
  {
    "smiles.string": "COC1=CC(=O)C[C@@H](C)[C@]12Oc1c(F)c(OC)cc(OC)c1C2=O",
    "tgt": "MDA-MB-231",
    "endpoint": "Activity",
    "meas.value": "inactive"
  },
  {
    "smiles.string": "COC1=CC(=O)C[C@@H](C)[C@]12Oc1c(Cl)c(OC)c(F)c(OC)c1C2=O",
    "tgt": "MDA-MB-231",
    "endpoint": "Activity",
    "meas.value": "inactive"
  },
  {
    "smiles.string": "COC1=CC(=O)[C@H](O)[C@@H](C)[C@]12Oc1cc(OC)cc(OC)c1C2=O",
    "tgt": "MDA-MB-231",
    "endpoint": "Activity",
    "meas.value": "inactive"
  }
]

###

System: Nannizzia gypsea
test.protocol: Antifungal activity against Microsporum gypseum at 25 ug/disc incubated for 5 days by agar disk diffusion method
Type: functional
test.context: 120 h, read-out: DIZ
A collection of compounds and their measured zone of inhibition at 25 µg/disc
Express your answer in mm, writing the number without its unit.

Recorded zone of inhibition at 25 µg/disc, per entry:
[
  {
    "smiles.string": "COC1=CC(=O)[C@H](O)[C@@H](C)[C@]12Oc1c(F)c(OC)cc(OC)c1C2=O",
    "tgt": "Nannizzia gypsea",
    "unit.symbol": "mm",
    "zone of inhibition at 25 µg/disc": 0
  },
  {
    "smiles.string": "COC1=CC(=O)C[C@@H](C)[C@]12Oc1cc(OC)c(F)c(OC)c1C2=O",
    "tgt": "Nannizzia gypsea",
    "unit.symbol": "mm",
    "zone of inhibition at 25 µg/disc": 0
  }
]

Would you kindly look at the next entry?
Input: Find the measured zone of inhibition at 25 µg/disc: item COC1=CC(=O)[C@H](O)[C@@H](C)[C@]12Oc1cc(OC)cc(OC)c1C2=O , target or system Nannizzia gypsea.
Output: 0

Data origin, for the record: ChEMBL document CHEMBL4043171
